Data origin, for the record: the nanobody polyreactivity screen of Harvey et al. (2022)

# assay_remarks: yeast display, Sf9 membrane polyspecificity reagent, FACS + sequencing; frameworks hold sequencing errors
readout_name: polyreactivity (PSR sort gate)

Past entries and their recorded results:
[ask] Name the reported polyreactivity (PSR sort gate) value associated with the sequence QVQLVESGGGLVQAGGSIRLSCAASGSTFANYAMGWYRQAPGKERELVAAISWSGSYTYYADSVKGSFTISRDNAKNTVYLQMNSLKPEDTAVYYCAADYDTPTWEYYYWGQGTQVTVSS
[reply] low polyreactivity

[ask] // returns reported polyreactivity (PSR sort gate) for input QVQLVESCGGLVQAGCSLRLSCAASGSIVAWYTMGWYRQAPGKERELVAGITASGGSTYYADSVKGRFTISRDNAKNTVYLQMNILKPEDTAVYYCAATNPFRYRRGGYWGQGTQVTVSS
[reply] high polyreactivity

[ask] # polyreactivity (PSR sort gate) lookup, item QVQLVESGGGLVQAGGRLRLSCAASGYTFAGNAMGGYRPAPGKERELVAVITYSGGSTYYADSVKGRFTISRDNAKNTVYLQMNSLKPEDTAVYYCAADWQYSPRMDYWGQGTQVTVSS
[reply] low polyreactivity

[ask] For the sequence shown here, QVQLVESGGGLVQAGGSLRLSCAASGSTFSANAMGWYRQAPGKERELVAAITYRGGNTYYADSVKGRFTISRDNAKNTVYLQMNSLKPEDTAVYYCNRDLRVRYRRLKYGYWGQGTQVTVSS , give the reported polyreactivity (PSR sort gate).
[reply] low polyreactivity

[ask] Record request: polyreactivity (PSR sort gate) value, item QVQLVESGGGLVQAGGSLRLSCAASGRIFTWNAMGWYRQAPGKERELVATINRGGNTNYADSVKGRFTISRDNAKNTVYLQMNSLKPEDTAVYYCAARYHYSNLYRFAYGYWGQGTQVTVSS
[reply] high polyreactivity

[ask] Please look up its polyreactivity (PSR sort gate): QVQLVESGGGLVQAGGSLRLSCAASGITFTPNAMGWYRQAPGTEREFVAAITYSGGSTYYADSVKGRFTISRDNAKNTVYLQMNSLKPEDTAVYYCAAVYDLLYYEAYYYWGQGTQVTVSS
[reply] low polyreactivity

Further cases:
[ask] Which value of polyreactivity (PSR sort gate) has been reported for QVQLVESGGGLVQAGGSLRLSCAASGFTISLYTMAWYRQAPGKERELVASNTRRGGSTYYADSVKGRFTISRDYAKNTVYLQMNSLKTEDTAGYYCARAARSDSIFKPRRGYATDGYWGQVTQVTVSS in the records?
[reply] high polyreactivity

[ask] What value of polyreactivity (PSR sort gate) has been recorded for this entry: QVQLQESGGGLMQAGGSQRLSCAASGSISYYSDMGWYPQAPGKEREFVAGIGYGTTTNYADSVKGRFTTSRDNAKNTVYMQMISMKPEDTAVYYCAAYQGNGYEFYYWGQGTQVTVRS
[reply] low polyreactivity

[ask] For the sequence QVQLVESGGGLVQAGGSLRLSCAASGRTFPLYAMGWYRQAPGKERELVARINRGGSTYYADSVKGRFTISRDNAKNTVYLQMNSLKPEDTAVYYCNARHTWHQTYDYWGQGTQVTVSS , what polyreactivity (PSR sort gate) is on record?
[reply] low polyreactivity

[ask] What value of measured polyreactivity (PSR sort gate) is listed for QDQLVESGGGLVQAGGSLRLSCAPSGFIFDDNAMGWYRQAPGKERELVAAITSGGGSTYYADSVKGRFTISRDNAKNTFYLQMNSLKPEDTAVYYCNKVYGWYSFKWGPTASDYWGQGTQVTVSS ?
[reply] low polyreactivity

[ask] Bench note: what polyreactivity (PSR sort gate) did QVQLVESGGGLVQAGGSLRLSCAASGSNFRANAMGWYRQATGKERELVAAISKSGGSTYYADSVKGRFRISRDNAKNTVYLQMNSLKPEDTGVYYCAARTTYLYGMYYWGQGTQVTVSS show?
[reply] low polyreactivity

###

# assay_remarks: yeast display, Sf9 membrane polyspecificity reagent, FACS + sequencing; frameworks hold sequencing errors
readout_name: polyreactivity (PSR sort gate)

Solved cases (4 shown):
[ask] # lookup: polyreactivity (PSR sort gate) of QVQLQESGGGLVQAGGSLRLSCAASGPISRRSNMGWYRQSPGKESELVTAITRGTNTNYADSVKGRFTISRDNAKYTEYLQMNSLNPEDTAVYYCADYGVLKPSRGDAVFNRYWGQGTQVTVSS
[reply] low polyreactivity

[ask] Please give the measured polyreactivity (PSR sort gate) for this sequence: QVQLVESGGGLVQAGGSLRLSCAASGSIFSYYAMGWYRQAPGKERELVADISFTGDSTYYADSVKGRFTISRDNAKNTVYLQMNSLKPEDTAVYYCAKDEIIAVYFEYDYWGQGTQVTVSS
[reply] low polyreactivity

[ask] Quick one: polyreactivity (PSR sort gate) of QVQLVESGGGLVQAGGSLRLSCAASGFTFYPYAMGWYRQAPGKERELVASISWSGGSTYYADSVKGRFTISRDNAKNTVYFQMNSLKPEDTAVYYCNAEYWLPYYPDYDFWGQGTQVTVSS ?
[reply] low polyreactivity

[ask] Recorded polyreactivity (PSR sort gate) of QVQLVESWGGLVQAGGSLRLSCAASGSTFRRNAMGCYRQAPGKERELVAAITRSGDSTYYADSVKGRFTISRDYAKNTVYLQMNSLKPEDTAVYYCAADSSRYRYRNQGYYWGQGTQVTVSS , please.
[reply] high polyreactivity

More entries:
[ask] State the recorded polyreactivity (PSR sort gate) for this entry: QVQLVESGGALVQAGGSLRLICAASGGTFTNYAMGWYSQAPGKERELVAAITDSGATTYYADSVKGRFTNSRDNAKNTVYLQMNSLKPEDTAVYYCNAELDLYTDFDYWGQGTQVTVSS
[reply] low polyreactivity

[ask] Which measured polyreactivity (PSR sort gate) value corresponds to QVQGVESGGGLVQAGGSLRLSCAASGLTFKENVMGWYRKAPGKERELVAAISTGASTYYADSVKGRFTISRDNANNTVYLQMNSLKPEDTAVYYCAAERWAQGYTYEYWGQGTQVTVSS ?
[reply] high polyreactivity

[ask] For QVQLVESGGGLVQAGGSLRLSCAASGRIFVYNAMGWYRQAPGKERELVAAITYSVDSTYYADSVKGRFTISRDNAKNTVYLQMNSLKPEDTAVYYCAADDFHYVIHAYYSSGVDYWGQGTQVTVSS , what is its reported polyreactivity (PSR sort gate)?
[reply] low polyreactivity

[ask] Find the recorded polyreactivity (PSR sort gate) belonging to QVQLVESGGGLVQAGGSLRLSCAASGSIAGNAMGWYRQAPGKERELVATITRRGGRTYYADSVKGRFTISRDNAKNTVYLQMNSLKPEDTAVYYCNKVSYARGYDYWGQGTQVTVSS and report it.
[reply] high polyreactivity

###

# assay_remarks: yeast display, Sf9 membrane polyspecificity reagent, FACS + sequencing; frameworks hold sequencing errors
readout_name: polyreactivity (PSR sort gate)

The following sequences have reported results that may help.
[ask] For the sequence QVKLVESGGGLVQAGGSLRLSCAASGFIFLRYGMGWYRQAPGKERELVASIDSTGGSTYADSVKGRFTISRDNAKNTVYLKMNSLKPVDTAVYFCAAAFYIVSERDYCGQGTQVTVSS , what polyreactivity (PSR sort gate) is on record?
[reply] low polyreactivity

[ask] Item under review: QVHHVESGGGLVQAGGSLRLSCAASGSTFYGYALGWYRQAPGKERELVAAITGSGDTTYYADSVKGRFTISRDNAKYTVYLQMNSLKPEDTAVYYCNRDYRSDLGYADQSWTDQYDHWGQGTQVTVSS . Reported polyreactivity (PSR sort gate)?
[reply] low polyreactivity

[ask] Requested read-out: polyreactivity (PSR sort gate). Entry: QVQLVESGGGLVQAGGSLRLSCAASGFIFGYYAMGWYRQAPGKERELVAAITRSGGSTRYADSVKGRFTISRDKAKNTVYLQMNSLKPEDTAVYYCNAYAPRQLYGYDYWGQGTQVTVSS
[reply] high polyreactivity

[ask] Any idea what polyreactivity (PSR sort gate) was measured for QVELVESGGGLVQAGGRPRLSCAASGSTFAGYAMGWERQAPGKERELVAAISRRGGSTYYADSVKGRFTISRDNAKNTVYLQMNSLKPEDTAVYFFARDYPLHYDYWGQGTQVTVSS ?
[reply] high polyreactivity

[ask] Quick one: polyreactivity (PSR sort gate) of QVQLVESGGGLVQAGGSLRLSCAASGFTFVYYAMGWYRQAPGKERELVATISGNGGRTYYADSVKGRFTISRDNAKNTVYLQMNSLIPDDTAVYYCATDVGFGRKQRPHRPGYGYWGQGTLVTVSS ?
[reply] low polyreactivity

[ask] # query: polyreactivity (PSR sort gate) of entry QVQLVESGGGLVQAGGSLRLSCAASGFTFDHYAMGWCRQAPGKERELVAAITSSGGRTYYADSVKGRFTISRDNAKNTVYLQMNSLKPEDTAVYYCNARPVYYSGYGYWGQGTQVTVSS
[reply] high polyreactivity

[ask] So what's the measured polyreactivity (PSR sort gate) for this one? QVQLVESGGGLVQAGGSLSLSCAASGSIFAYKAMGWYRQAPGKEREFVAVITRSDDSTYADSVKGRFTISRDNAKNNVYLQMNSLKPEDTAVYYCAVVANYVYSKYDYWGQGTQVTVSS
[reply] low polyreactivity

[ask] Returns the measured polyreactivity (PSR sort gate) for the input sequence. Input: QVQLVESGGGLVQAGGSLRLSCAASGRIFSYNAMGWYRQAPGKERELVAAISTGTSTYYADSVKGRFTISGDNAKNTVYLQMNSLKPEDTAVYYCAVDAYYWYQWYDYWGQGTQVTVSS
[reply] low polyreactivity

[ask] I am curious: what polyreactivity (PSR sort gate) value has been reported for QVQLVESGGGLVQAGGSLRLSCAASGSINELYAKGWYRQAPGKERELVASITWRGGSTYYADSVKGRFTISRDNAKNTVYLQMNSLKPEDTAVYDCAADVPTASGTYDYWGQGTQVTVSS ?
[reply] low polyreactivity

[ask] Fill in: polyreactivity (PSR sort gate) of QVQLVESGGGLVQAGGSLRLSCAASGFIFSRNVMGWYRQAPGKERELVAAISRSGGSTYYADSVKGRFTISRDNAKNTVYLQMNSLKPEDTAVYYCAASRINYVYLLKGDYWGQGTQVTVSS is ___
[reply] high polyreactivity

// moving on: another record for polyreactivity (PSR sort gate)
[ask] Data request, read-out polyreactivity (PSR sort gate), for QVQLVESAGGLDQAGGSLRLSCAASGFTFVAYSMGLYRQAPGKERELVADISRGGSTFYADSVKGRFTISRDNAKISVYLQKNSLKPEDSAVYYCASTYIHSYGKFYYWGQGTQVTVSS
[reply] low polyreactivity
